target: Kallikrein-7 (Homo sapiens) (UniProt P49862); experiment: activation of human kallikrein-7 proenzyme – biochemical, fluorescence intensity, primary screen (AID 652039); conditions: purified proKLK7, EDANS-DABCYL substrate fluorescence; at 7 µM; hits give high values; 100% is mature enzyme control, 0% vehicle
Sequence (P49862 whole entry, looked up): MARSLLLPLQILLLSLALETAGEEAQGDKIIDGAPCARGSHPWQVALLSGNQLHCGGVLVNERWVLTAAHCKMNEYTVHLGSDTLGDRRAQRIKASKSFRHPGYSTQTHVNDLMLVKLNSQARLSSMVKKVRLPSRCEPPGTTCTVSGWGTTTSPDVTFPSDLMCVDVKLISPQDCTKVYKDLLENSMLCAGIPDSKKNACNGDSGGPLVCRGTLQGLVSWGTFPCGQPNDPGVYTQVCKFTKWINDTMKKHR
Hit rate of the full screen: of about 370,000 compounds, about 3,300 (0.89%) were called active. The sample holds actives, similar compounds and a random draw of the others, so the mix is not that of the screen.

{"columns": ["compound", "tested.on", "unit.of.measure", "activation"],
 "data": [
  ["CCOC(=O)NN1C(=O)c2ccccc2NC1c1cccc(O)c1 (stereo not given)", "Kallikrein-7 (Homo sapiens) (UniProt P49862)", "%", 26.7],
  ["Cc1ccc2nc(-c3ccc(CN4CCC(n5cc(-c6ccccc6)[nH]c5=O)CC4)cc3)c(-c3ccccc3)nc2c1", "Kallikrein-7 (Homo sapiens) (UniProt P49862)", "%", -16.7],
  ["CCOC(=O)NN1C(=O)c2ccccc2NC1c1ccccc1O (stereo not given)", "Kallikrein-7 (Homo sapiens) (UniProt P49862)", "%", 8.02],
  ["COCCCn1c(-c2cccs2)nc2nc3ccccc3nc21", "Kallikrein-7 (Homo sapiens) (UniProt P49862)", "%", 22.9],
  ["COc1ccc(-c2cc(C(F)(F)F)nc(S(C)(=O)=O)n2)cc1OC", "Kallikrein-7 (Homo sapiens) (UniProt P49862)", "%", 15.4],
  ["COCCCn1c(C(=O)NC2CCCCC2)cc2c(=O)n3cccc(C)c3nc21", "Kallikrein-7 (Homo sapiens) (UniProt P49862)", "%", -0.55],
  ["CCc1nnc(NC(=O)CSc2nc3ccccc3c(=O)n2CCCOC)s1", "Kallikrein-7 (Homo sapiens) (UniProt P49862)", "%", 0.09],
  ["CC(C)N1C(=O)c2ccccc2NC(=O)C1C(=O)NCc1cccs1 (stereo not given)", "Kallikrein-7 (Homo sapiens) (UniProt P49862)", "%", 0],
  ["Cc1ccc(Cn2c(C)c3cnn(CC(=O)NCCN4CCOCC4)c(=O)c3c2C)cc1", "Kallikrein-7 (Homo sapiens) (UniProt P49862)", "%", 0],
  ["CN(C)c1ccc(C2Nc3ccccc3C(=O)N2NS(=O)(=O)c2ccccc2)cc1 (stereo not given)", "Kallikrein-7 (Homo sapiens) (UniProt P49862)", "%", 4.94]
]}

Where do these numbers come from? They come from PubChem BioAssay AID652039.
